assay.method.text: Plasma pharmacokinetics of Compound 2 in PD participants (LC-MS/MS)
Format: in vivo, human
condition.set: human, plasma, po, 15 mg, plasma, Day 1; Japan, High 15 mg oral, n = 3; read-out: Cmax, mean
recorded.endpoint: Cmax

Asked: Would you kindly share the measured Cmax for CC(C)(NC(=O)O[C@@H]1CN2CCC1CC2)c1csc(-c2ccc(F)cc2)n1 ?
Given back: 54.1 ng/mL

====

assay.method.text: Plasma pharmacokinetics of Compound 2 in PD participants (LC-MS/MS)
Format: in vivo, human
condition.set: human, plasma, po, 4 mg, plasma, Day 1; ROW, Low 4 mg oral, n = 4; read-out: AUC0-48, Geometric mean
recorded.endpoint: AUC(0-t) (ng·h/mL)
Write the answer as a number in ng·h/mL, unit excluded.

Asked: Data request, read-out AUC(0-t), for CC(C)(NC(=O)O[C@@H]1CN2CCC1CC2)c1csc(-c2ccc(F)cc2)n1 [Compound 2]
Given back: 419

Hello, the source for this data is patent US20230372313A1, in case you need it.
